Target: S. aureus (SAU) GyrB ATPase (Staphylococcus aureus)
Sequence (P0A0K8 whole entry): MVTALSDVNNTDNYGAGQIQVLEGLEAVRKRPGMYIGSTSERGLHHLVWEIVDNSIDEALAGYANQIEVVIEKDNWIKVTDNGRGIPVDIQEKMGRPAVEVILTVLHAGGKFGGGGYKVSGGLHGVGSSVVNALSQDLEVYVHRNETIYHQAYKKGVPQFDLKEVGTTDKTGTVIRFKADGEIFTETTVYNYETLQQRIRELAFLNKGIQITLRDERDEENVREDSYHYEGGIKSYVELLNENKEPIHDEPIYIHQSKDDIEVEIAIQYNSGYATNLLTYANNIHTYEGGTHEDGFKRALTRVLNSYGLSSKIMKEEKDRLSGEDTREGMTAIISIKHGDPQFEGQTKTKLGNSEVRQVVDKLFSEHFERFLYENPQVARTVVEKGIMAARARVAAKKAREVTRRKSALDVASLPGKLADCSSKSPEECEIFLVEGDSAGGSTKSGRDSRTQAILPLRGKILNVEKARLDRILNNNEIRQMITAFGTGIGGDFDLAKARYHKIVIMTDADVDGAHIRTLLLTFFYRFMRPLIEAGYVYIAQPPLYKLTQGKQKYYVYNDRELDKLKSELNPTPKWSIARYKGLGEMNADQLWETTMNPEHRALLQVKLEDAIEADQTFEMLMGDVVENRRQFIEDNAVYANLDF
Sequence (P0AES4 whole entry, further chain): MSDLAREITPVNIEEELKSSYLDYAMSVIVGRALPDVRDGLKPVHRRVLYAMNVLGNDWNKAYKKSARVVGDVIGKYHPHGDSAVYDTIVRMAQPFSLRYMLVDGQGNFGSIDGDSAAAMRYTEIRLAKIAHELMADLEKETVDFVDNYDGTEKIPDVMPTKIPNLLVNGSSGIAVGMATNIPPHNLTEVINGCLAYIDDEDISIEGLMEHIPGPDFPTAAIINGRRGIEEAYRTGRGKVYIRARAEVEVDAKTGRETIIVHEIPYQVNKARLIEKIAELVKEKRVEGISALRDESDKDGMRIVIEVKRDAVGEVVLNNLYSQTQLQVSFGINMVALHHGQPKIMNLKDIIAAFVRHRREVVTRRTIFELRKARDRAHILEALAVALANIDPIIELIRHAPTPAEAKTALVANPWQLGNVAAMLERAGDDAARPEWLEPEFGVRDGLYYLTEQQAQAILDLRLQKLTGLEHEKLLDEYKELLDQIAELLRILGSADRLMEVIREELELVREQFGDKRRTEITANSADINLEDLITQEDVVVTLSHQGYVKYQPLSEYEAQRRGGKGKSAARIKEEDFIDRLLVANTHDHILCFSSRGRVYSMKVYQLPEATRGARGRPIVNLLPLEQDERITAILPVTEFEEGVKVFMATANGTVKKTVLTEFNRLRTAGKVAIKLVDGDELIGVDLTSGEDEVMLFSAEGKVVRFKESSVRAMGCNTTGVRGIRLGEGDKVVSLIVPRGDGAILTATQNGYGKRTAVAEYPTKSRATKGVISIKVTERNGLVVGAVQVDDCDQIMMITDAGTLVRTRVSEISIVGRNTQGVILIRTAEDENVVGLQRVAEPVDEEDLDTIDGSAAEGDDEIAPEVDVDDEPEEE
Assay: S. aureus GyrB ATPase inhibition, ammonium molybdate/malachite green phosphate detection assay
Format: biochemical
Conditions: read-out: S. aureus (SAU) GyrB ATPase % Inhibition, compound concentration 12.5 μM
measure_name: inhibition at 12.5 µM (%)
All answers are understood in %, so give the number only.

compound CCCCNC(=O)c1nc(-c2ccc(NC(=O)NCC)nc2)sc1C(=O)N(C)C , inhibition at 12.5 µM observed: 99.5

Entry CCC(C)NC(=O)Nc1cc(-c2nc(C(F)(F)F)cs2)c(-c2cncc(C(=O)O)c2)cn1 (centres unmarked) ; inhibition at 12.5 µM = 93.1

// sample CCNC(=O)Nc1ccc(-c2nc3cccc(C(=O)OCC)c3s2)cn1 , its inhibition at 12.5 µM was 84

Entry CCNC(=O)Nc1cc(-c2nc(C(F)(F)F)cs2)c(-c2cncc(C(N)=O)c2)cn1 ; inhibition at 12.5 µM = 81.8

Looking up CCNC(=O)Nc1cc(-c2ccc(C(=O)O)cc2)ccn1 , I found its inhibition at 12.5 µM recorded as 38.6

Per the record, CCNC(=O)Nc1ccc(-c2cccc(C(=O)O)c2)cn1 has inhibition at 12.5 µM of 99.7

Looking up CCNC(=O)Nc1ccc(-c2nc(C(=O)NC)c(C(=O)OC(C)C)s2)cn1 , I found its inhibition at 12.5 µM recorded as 81.5

CNC(=O)c1cncc(-c2cnc(NC(=O)NC(C)C)cc2-c2nc(C(F)(F)F)cs2)c1 has a reported inhibition at 12.5 µM of 100

All values here come from patent US7674801B2.
